src = patent US20190352420A1

Biological target: T1, cell-bound CD73 (human, UniProt P21589 27-549)
T1 sequence (looked up): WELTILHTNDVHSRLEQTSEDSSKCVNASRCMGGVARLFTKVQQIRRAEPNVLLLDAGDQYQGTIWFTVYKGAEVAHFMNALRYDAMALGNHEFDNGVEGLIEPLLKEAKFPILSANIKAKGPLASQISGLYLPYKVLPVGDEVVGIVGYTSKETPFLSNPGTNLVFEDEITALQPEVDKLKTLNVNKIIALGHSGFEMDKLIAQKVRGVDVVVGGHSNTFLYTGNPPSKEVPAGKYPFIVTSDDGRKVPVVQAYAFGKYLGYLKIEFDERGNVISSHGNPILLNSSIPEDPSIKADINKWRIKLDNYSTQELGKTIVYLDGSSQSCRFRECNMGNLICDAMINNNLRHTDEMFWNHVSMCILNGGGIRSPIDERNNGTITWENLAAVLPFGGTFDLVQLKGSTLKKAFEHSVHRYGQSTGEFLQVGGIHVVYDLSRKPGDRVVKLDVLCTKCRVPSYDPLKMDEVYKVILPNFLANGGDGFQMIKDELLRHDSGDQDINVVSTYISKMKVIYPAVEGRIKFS
Test: cell-based or functional assay
# maps each entry to its Max. adenosine inhibition [%] in Colo201 cells
ASSAY METRIC: Max. adenosine inhibition [%] in Colo201 cells (%)

[[record]]
binder = "B2 (antibody, human IgG1, kappa, L234A L235A, V domains shown, Humanized monoclonal antibody; also called anti-CD73 antibody B2) VH: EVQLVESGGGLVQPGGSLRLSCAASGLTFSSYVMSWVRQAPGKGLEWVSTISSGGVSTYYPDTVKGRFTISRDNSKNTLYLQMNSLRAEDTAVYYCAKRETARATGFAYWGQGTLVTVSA VL: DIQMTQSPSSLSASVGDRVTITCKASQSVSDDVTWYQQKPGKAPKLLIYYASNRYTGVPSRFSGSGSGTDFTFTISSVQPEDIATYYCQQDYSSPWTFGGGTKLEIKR"
result_number = 77

[[record]]
binder = "C2 (antibody, human IgG1, kappa, L234A L235A, V domains shown, Humanized monoclonal antibody; also called anti-CD73 antibody C2) VH: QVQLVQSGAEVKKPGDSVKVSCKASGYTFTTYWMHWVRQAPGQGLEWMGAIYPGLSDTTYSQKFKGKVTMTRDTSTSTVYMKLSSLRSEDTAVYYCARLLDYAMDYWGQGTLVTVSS VL: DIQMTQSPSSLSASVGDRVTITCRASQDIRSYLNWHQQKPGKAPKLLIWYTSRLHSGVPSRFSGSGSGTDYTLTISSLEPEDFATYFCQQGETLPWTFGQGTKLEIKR"
result_number = 88

[[record]]
binder = "C5 (antibody, human IgG1, kappa, L234A L235A, V domains shown, Humanized monoclonal antibody; also called anti-CD73 antibody C5) VH: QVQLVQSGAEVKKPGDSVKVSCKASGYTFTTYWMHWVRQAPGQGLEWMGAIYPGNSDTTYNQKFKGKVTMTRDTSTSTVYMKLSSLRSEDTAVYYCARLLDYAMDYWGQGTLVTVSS VL: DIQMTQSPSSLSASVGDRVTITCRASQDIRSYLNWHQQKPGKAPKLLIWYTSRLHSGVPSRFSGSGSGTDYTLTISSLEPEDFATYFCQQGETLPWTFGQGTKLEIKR"
result_number = 87

